Values were extracted from the Immune Epitope Database (IEDB).

Target: HLA-A*31:01
Assay: IEDB peptide-MHC binding, purified MHC/competitive/radioactivity; filed as Kd, often an IC50 or EC50 that approximates it; bounds were set here for any values at or beyond the usual limits of such assays
Settings: source organism: SARS coronavirus Tor2
quantity_kind: Kd (nM)

[[record]]
seq_string = "LLNKEMYLK"
result = 155

[[record]]
seq_string = "TTIKPVSYK"
result = 103

[[record]]
seq_string = "AQPCSDKAYK"
result = 1130

[[record]]
seq_string = "DLKWARFPK"
result = 391

[[record]]
seq_string = "ITAKETLYR"
result = 193

[[record]]
seq_string = "VFLILCFTIK"
result = 613

[[record]]
seq_string = "GFDAWFSQR"
result = 131

[[record]]
seq_string = "SLLRSTSQK"
result = 802

[[record]]
seq_string = "KSFNHVLKRK"
result = 67.9

[[record]]
seq_string = "WLSYFVASFR"
result = 0.461

[[record]]
seq_string = "QQQGQTVTKK"
result = 13700


====

Target: HLA-A*02:02
Assay: IEDB peptide-MHC binding, purified MHC/competitive/radioactivity; filed as Kd, often an IC50 or EC50 that approximates it; bounds were set here for any values at or beyond the usual limits of such assays
Details: source organism: Vaccinia virus WR
quantity_kind: Kd (nM)

[[record]]
seq_string = "NMDWRSLTQV"
quantity_kind = "Kd"
result = 100

[[record]]
seq_string = "DTGKKELAL"
quantity_kind = "Kd"
result = 116

[[record]]
seq_string = "NINIEVKLFI"
quantity_kind = "Kd"
result = 12500


====

Target: HLA-A*26:01
Test: IEDB peptide-MHC binding, purified MHC/competitive/radioactivity; filed as Kd, often an IC50 or EC50 that approximates it; bounds were set here for any values at or beyond the usual limits of such assays
Details: source organism: SARS coronavirus Tor2
pKd: −log10 of the molar value.
quantity_kind: pKd

[[record]]
seq_string = "QFKDNVILL"
assay_system = "HLA-A*26:01"
result = "≤ 4.56"

[[record]]
seq_string = "ASLGPLRETY"
assay_system = "HLA-A*26:01"
result = "≤ 4.09"

[[record]]
seq_string = "IDETCEHEY"
assay_system = "HLA-A*26:01"
result = "≤ 4.49"

[[record]]
seq_string = "SGALDTTSY"
assay_system = "HLA-A*26:01"
result = "≤ 4.26"


====

Target: HLA-A*68:01
Experiment: IEDB peptide-MHC binding, purified MHC/competitive/radioactivity; filed as Kd, often an IC50 or EC50 that approximates it; bounds were set here for any values at or beyond the usual limits of such assays
Conditions: source organism: SARS coronavirus Tor2
pKd: −log10 of the molar value.
In this section, each of the sequences is paired with its reported pKd.
quantity_kind: pKd

[[record]]
seq_string = "GVVFLHVTY"
quantity_kind = "pKd"
relation = "≤"
result = 4.22

[[record]]
seq_string = "QQQGQTVTKK"
quantity_kind = "pKd"
relation = "="
result = 5.08

[[record]]
seq_string = "CAAYYFMKFR"
quantity_kind = "pKd"
relation = "="
result = 7.15

[[record]]
seq_string = "VVENPTIQK"
quantity_kind = "pKd"
relation = "="
result = 6.39

[[record]]
seq_string = "SLLRSTSQK"
quantity_kind = "pKd"
relation = "="
result = 5.52

[[record]]
seq_string = "KSFNHVLKRK"
quantity_kind = "pKd"
relation = "="
result = 5.80

[[record]]
seq_string = "VFLILCFTIK"
quantity_kind = "pKd"
relation = "="
result = 6.02

[[record]]
seq_string = "WLSYFVASFR"
quantity_kind = "pKd"
relation = "="
result = 9.31

[[record]]
seq_string = "TTIKPVSYK"
quantity_kind = "pKd"
relation = "="
result = 8.82

[[record]]
seq_string = "LLNKEMYLK"
quantity_kind = "pKd"
relation = "="
result = 5.96


====

Target: HLA-B*44:02
Experiment: IEDB peptide-MHC binding, purified MHC/competitive/radioactivity; filed as Kd, often an IC50 or EC50 that approximates it; bounds were set here for any values at or beyond the usual limits of such assays
Conditions: source organism: SARS coronavirus Tor2
pKd: −log10 of the molar value.
pKd reference
quantity_kind: pKd

[[record]]
seq_string = "DEWSVATFYL"
relation = "="
result = 6.03

[[record]]
seq_string = "IDYRHYSASF"
relation = "="
result = 5.23

[[record]]
seq_string = "YEAMYTPHT"
relation = "≤"
result = 4.66

[[record]]
seq_string = "EEAARCMRSL"
relation = "="
result = 6.79

[[record]]
seq_string = "SEFDRDAAM"
relation = "="
result = 6.13


====

Target: HLA-B*07:02
Experiment: IEDB peptide-MHC binding, purified MHC/competitive/radioactivity; filed as Kd, often an IC50 or EC50 that approximates it; bounds were set here for any values at or beyond the usual limits of such assays
Details: source organism: Vaccinia virus WR
Each entry below carries its recorded Kd.
quantity_kind: Kd

[[record]]
seq_string = "NTYLFNILY"
quantity_kind = "Kd"
result = "≥ 29.2 µM"

[[record]]
seq_string = "YLLFASMGFK"
quantity_kind = "Kd"
result = "≥ 69.6 µM"

[[record]]
seq_string = "TLNHVLALK"
quantity_kind = "Kd"
result = "≥ 77.5 µM"


====

Biological target: HLA-A*02:06
Assay: IEDB peptide-MHC binding, purified MHC/competitive/radioactivity; filed as Kd, often an IC50 or EC50 that approximates it; bounds were set here for any values at or beyond the usual limits of such assays
Settings: source organism: Vaccinia virus WR
pKd: −log10 of the molar value.
In this section we review reported pKd values for a set of sequences.
quantity_kind: pKd

[[record]]
seq_string = "PAHLINKLL"
quantity_kind = "pKd"
relation = "≤"
result = 4.37

[[record]]
seq_string = "KAKQLCYCPA"
quantity_kind = "pKd"
relation = "="
result = 6.47

[[record]]
seq_string = "GLFDINVIGL"
quantity_kind = "pKd"
relation = "="
result = 6.62

[[record]]
seq_string = "SIENKHQRRL"
quantity_kind = "pKd"
relation = "≤"
result = 4.27

[[record]]
seq_string = "NTKSDNIINI"
quantity_kind = "pKd"
relation = "≤"
result = 4.16

[[record]]
seq_string = "VLEKKVCAIT"
quantity_kind = "pKd"
relation = "="
result = 5.77

[[record]]
seq_string = "TAFFNTCKPT"
quantity_kind = "pKd"
relation = "≤"
result = 4.48

[[record]]
seq_string = "LPRPDTRHL"
quantity_kind = "pKd"
relation = "="
result = 4.74

[[record]]
seq_string = "TIKESLLKET"
quantity_kind = "pKd"
relation = "="
result = 7.06

[[record]]
seq_string = "KIILFQNNDI"
quantity_kind = "pKd"
relation = "="
result = 5.66

[[record]]
seq_string = "VTDKTAYIGT"
quantity_kind = "pKd"
relation = "="
result = 6.64


====

Biological target: HLA-A*03:01
Assay: IEDB peptide-MHC binding, purified MHC/competitive/radioactivity; filed as Kd, often an IC50 or EC50 that approximates it; bounds were set here for any values at or beyond the usual limits of such assays
Conditions: source organism: Vaccinia virus WR
pKd: −log10 of the molar value.
Quick rule for you: pKd at 6 or higher means 1, lower means -1.

[[record]]
seq_string = "HILHAYCGIK"
category = 1

[[record]]
seq_string = "VSVDAMIHK"
category = -1

[[record]]
seq_string = "ATSSFREKSR"
category = 1

[[record]]
seq_string = "FSGKEPISDY"
category = -1

[[record]]
seq_string = "LAELLEMKY"
category = -1

[[record]]
seq_string = "YSSMTSDSK"
category = -1

[[record]]
seq_string = "PISASDMQK"
category = -1


====

Biological target: HLA-A*31:01
Assay: IEDB peptide-MHC binding, purified MHC/competitive/radioactivity; filed as Kd, often an IC50 or EC50 that approximates it; bounds were set here for any values at or beyond the usual limits of such assays
Settings: source organism: Vaccinia virus WR
pKd: −log10 of the molar value.
quantity_kind: pKd

[[record]]
seq_string = "VTAASPMLY"
result = "≤ 4.11"

[[record]]
seq_string = "VVKDDPDHYK"
result = "≤ 4.39"

[[record]]
seq_string = "TSEKYSKGY"
result = "≤ 4.11"


====

Target: HLA-A*31:01
Experiment: IEDB peptide-MHC binding, purified MHC/competitive/radioactivity; filed as Kd, often an IC50 or EC50 that approximates it; bounds were set here for any values at or beyond the usual limits of such assays
Settings: source organism: Vaccinia virus WR
Listed next: entries and their corresponding Kd.
quantity_kind: Kd

[[record]]
seq_string = "FSGKEPISDY"
result = "≥ 70 µM"

[[record]]
seq_string = "SITPNNLNK"
result = "≥ 77.9 µM"

[[record]]
seq_string = "LAELLEMKY"
result = "≥ 77.9 µM"

